Hello, the source for this data is patent US10077261B2, in case you need it.

Please provide measured IC50 for the entries that follow.
Target: hFASN enzyme (full length) (Homo sapiens)
Construct: 10 μL hFASN enzyme (full length, 300 ng, purified in house); made in house
Sequence (P49327 whole entry): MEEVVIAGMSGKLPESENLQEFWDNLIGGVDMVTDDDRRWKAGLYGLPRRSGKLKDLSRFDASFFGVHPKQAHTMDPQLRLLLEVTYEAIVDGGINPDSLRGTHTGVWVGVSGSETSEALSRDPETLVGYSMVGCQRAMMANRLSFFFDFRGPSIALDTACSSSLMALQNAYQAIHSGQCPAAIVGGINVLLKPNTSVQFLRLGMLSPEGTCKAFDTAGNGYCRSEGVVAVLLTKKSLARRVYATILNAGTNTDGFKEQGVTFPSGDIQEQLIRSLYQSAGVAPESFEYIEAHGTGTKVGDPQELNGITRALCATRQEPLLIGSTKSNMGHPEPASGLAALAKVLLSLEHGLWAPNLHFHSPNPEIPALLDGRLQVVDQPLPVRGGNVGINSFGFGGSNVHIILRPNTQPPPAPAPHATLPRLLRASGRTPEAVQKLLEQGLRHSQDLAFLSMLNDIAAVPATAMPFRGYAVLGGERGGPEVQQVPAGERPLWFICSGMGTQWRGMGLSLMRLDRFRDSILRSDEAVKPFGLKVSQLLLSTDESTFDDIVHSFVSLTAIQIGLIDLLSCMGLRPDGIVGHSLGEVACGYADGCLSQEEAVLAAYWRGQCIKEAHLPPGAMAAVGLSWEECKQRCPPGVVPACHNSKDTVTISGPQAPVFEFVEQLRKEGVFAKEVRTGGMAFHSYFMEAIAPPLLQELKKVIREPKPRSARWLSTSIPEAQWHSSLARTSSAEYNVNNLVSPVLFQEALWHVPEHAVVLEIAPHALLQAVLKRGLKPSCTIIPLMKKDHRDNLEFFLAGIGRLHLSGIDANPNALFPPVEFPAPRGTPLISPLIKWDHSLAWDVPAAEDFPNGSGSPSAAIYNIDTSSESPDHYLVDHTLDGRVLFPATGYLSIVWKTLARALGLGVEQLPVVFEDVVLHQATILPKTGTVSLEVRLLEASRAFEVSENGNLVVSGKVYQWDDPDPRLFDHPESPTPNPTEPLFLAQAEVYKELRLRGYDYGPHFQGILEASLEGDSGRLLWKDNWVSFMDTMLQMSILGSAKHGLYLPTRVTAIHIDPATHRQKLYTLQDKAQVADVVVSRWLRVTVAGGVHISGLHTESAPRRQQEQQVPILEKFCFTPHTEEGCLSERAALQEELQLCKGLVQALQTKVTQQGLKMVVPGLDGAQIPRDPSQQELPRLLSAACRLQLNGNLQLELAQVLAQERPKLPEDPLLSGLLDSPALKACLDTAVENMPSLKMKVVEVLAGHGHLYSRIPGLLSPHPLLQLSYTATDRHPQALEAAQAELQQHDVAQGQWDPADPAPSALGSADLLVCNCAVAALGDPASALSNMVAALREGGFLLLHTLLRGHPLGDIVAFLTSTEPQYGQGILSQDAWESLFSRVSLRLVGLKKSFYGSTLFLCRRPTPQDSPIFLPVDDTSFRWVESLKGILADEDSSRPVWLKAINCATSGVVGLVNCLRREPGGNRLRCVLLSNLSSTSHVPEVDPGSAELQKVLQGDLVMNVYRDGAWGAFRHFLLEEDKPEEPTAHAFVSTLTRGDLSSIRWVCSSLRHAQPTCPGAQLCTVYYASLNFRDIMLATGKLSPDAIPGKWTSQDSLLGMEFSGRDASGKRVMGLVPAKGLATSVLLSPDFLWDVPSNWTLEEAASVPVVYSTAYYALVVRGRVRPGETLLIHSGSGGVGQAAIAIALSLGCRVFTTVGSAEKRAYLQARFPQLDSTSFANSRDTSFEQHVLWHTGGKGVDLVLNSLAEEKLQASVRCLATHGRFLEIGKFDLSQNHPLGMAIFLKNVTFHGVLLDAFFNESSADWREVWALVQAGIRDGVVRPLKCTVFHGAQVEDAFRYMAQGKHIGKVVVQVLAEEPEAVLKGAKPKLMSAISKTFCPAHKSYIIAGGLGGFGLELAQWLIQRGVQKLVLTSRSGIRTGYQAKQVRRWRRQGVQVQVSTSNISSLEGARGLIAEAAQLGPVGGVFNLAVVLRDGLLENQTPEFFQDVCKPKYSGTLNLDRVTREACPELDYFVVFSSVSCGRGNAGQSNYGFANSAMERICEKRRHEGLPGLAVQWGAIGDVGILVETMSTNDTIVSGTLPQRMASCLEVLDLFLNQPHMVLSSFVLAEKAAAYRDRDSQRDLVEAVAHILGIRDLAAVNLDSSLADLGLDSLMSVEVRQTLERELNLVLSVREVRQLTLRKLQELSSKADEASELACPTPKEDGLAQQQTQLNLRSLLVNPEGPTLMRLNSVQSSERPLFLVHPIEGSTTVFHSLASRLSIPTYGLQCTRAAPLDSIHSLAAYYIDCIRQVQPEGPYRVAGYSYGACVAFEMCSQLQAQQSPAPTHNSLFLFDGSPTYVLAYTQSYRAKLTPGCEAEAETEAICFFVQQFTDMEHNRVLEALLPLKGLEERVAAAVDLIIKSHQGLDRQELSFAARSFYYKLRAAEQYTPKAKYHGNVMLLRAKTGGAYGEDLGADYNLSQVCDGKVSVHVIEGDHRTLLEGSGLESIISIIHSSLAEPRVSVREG
Assay: Fatty Acid Synthase (FASN) inhibition scintillation proximity assay
Assay type: biochemical
Details: read-out: Human FASN pIC50 (converted)

Some entries whose results are on file:
Cn1ncc2cc(-c3ccc(C4=NC5(CCOC5)C(=O)N4C[C@@H]4CCN(C(=O)c5nccs5)C4)cc3)ccc21 (stereo partly drawn)
> 10 µM
O=C(c1nccs1)N1CC(CN2C(=O)C3(CCOC3)N=C2c2ccc(-c3ccc4cccnc4c3)cc2)C1 (stereo not drawn)
> 10 µM

Consider the record given below.
Ask: Request the reported IC50 associated with `O=C(C1CC1)N1CCC(CN2C(=O)C3(CC3)N=C2c2ccc(-c3ccc(O)cc3)cc2)CC1`
Reply: > 10 µM
